# Test system: IL-1β production in PMA-differentiated THP-1 cells
# METHOD_SUMMARY: IL-1β production in PMA-differentiated THP-1 cells stimulated with gramicidin (hTHP-1 assay)
# Type: cell-based, human
# MEASUREMENT_SETUP: Homo sapiens, THP-1, Average IC50, hTHP-1 assay containing 2% fetal bovine serum; Table 10, class symbols
Assign IC50 to each entry below.

Prompt line: Please look at this molecule and report its IC50: CN(C)CCCS(N)(=O)=NC(=O)Nc1c2c(cc3c1CCC3)CCC2 (stereo not shown) [Compound 141]
Response line: 5 to 30 µM

Prompt line: Please look at this molecule and report its IC50: CC(CN(C)C)CS(N)(=O)=NC(=O)Nc1c2c(cc3c1CCC3)CCC2 (single isomer, unassigned) [Compound 122]
Response line: 1 to 5 µM

Prompt line: Please look at this molecule and report its IC50: CS(N)(=O)=NC(=O)Nc1c2c(cc3c1CCC3)CCC2 (stereo not shown) [Compound 115]
Response line: 5 to 30 µM

Prompt line: Please look at this molecule and report its IC50: NS(=O)(=NC(=O)Nc1c2c(cc3c1CCC3)CCC2)C1CC1 (single isomer, unassigned) [Compound 154]
Response line: 5 to 30 µM
